Molecular target: Angiotensin-converting enzyme (Homo sapiens, UniProt P12821)
Sequence (P12821 whole entry): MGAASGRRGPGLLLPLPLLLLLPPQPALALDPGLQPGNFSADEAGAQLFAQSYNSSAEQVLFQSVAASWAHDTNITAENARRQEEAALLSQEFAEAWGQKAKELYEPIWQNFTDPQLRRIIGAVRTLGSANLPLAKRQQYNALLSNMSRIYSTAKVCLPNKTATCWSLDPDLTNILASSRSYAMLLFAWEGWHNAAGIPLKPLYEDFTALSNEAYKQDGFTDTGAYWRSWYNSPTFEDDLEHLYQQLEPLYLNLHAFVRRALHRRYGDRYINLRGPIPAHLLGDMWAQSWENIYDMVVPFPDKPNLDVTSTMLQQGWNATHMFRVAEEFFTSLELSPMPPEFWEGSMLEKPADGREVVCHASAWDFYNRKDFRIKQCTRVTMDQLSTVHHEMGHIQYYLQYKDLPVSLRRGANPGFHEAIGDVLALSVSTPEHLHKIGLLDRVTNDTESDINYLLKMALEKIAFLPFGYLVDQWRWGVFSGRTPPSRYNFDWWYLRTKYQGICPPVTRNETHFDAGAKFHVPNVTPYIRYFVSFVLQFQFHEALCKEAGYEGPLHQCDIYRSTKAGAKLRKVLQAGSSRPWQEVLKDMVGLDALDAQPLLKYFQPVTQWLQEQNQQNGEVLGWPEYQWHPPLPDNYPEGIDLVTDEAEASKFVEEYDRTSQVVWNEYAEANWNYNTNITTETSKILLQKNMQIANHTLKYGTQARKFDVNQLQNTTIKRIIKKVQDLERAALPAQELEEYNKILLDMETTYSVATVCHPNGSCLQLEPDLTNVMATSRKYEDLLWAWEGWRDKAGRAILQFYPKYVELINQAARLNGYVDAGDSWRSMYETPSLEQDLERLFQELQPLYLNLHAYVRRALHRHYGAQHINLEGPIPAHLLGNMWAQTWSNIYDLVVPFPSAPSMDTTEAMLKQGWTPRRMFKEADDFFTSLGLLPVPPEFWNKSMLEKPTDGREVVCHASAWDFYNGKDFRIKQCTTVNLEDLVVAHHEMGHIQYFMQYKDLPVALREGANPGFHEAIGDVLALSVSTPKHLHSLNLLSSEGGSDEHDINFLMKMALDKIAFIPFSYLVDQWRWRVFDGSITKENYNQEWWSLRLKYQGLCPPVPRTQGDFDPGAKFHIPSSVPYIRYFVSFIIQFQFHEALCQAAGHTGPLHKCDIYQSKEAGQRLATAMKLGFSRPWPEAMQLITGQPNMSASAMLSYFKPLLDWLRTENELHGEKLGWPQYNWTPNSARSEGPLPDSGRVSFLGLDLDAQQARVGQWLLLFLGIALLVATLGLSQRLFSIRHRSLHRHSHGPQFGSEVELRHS
Residues, ends and D or L forms follow the SMILES beside them.
endpoint_name: IC50 (µM)

// known answers, use as guide
CC(C)[C@H](N)C(=O)N[C@@H](CO)C(=O)N[C@@H](CO)C(=O)N1CCC[C@H]1C(=O)O (H-VSSP-OH): 10
CC(C)C[C@H](N)C(=O)N[C@@H](CC(N)=O)C(=O)N1CCC[C@H]1C(=O)O (H-Leu-Asn-Pro-OH): 57.5
NC(=O)CC[C@H](NC(=O)[C@@H](N)Cc1ccccc1)C(=O)N1CCC[C@H]1C(=O)O (H-Phe-Gln-Pro-OH): 12
CC(C)[C@H](NC(=O)[C@H](C)N)C(=O)NCC(=O)N1CCC[C@H]1C(=O)O (H-AVGP-OH): 3.09
CC(C)[C@H](N)C(=O)N[C@@H](Cc1ccccc1)C(=O)O (H-Val-Phe-OH): 9.12
CSCC[C@H](N)C(=O)N[C@@H](CC(N)=O)C(=O)N1CCC[C@H]1C(=O)O (H-Met-Asn-Pro-OH): 66
C[C@H](NC(=O)[C@@H](N)Cc1ccccc1)C(=O)N1CCC[C@H]1C(=O)O (H-Phe-Ala-Pro-OH): 3.8
C[C@H](N)C(=O)N[C@@H](Cc1c[nH]c2ccccc12)C(=O)O (H-Ala-Trp-OH): 12
C[C@H](NC(=O)[C@H](Cc1c[nH]c2ccccc12)NC(=O)CN)C(=O)N1CCC[C@H]1C(=O)O (H-GWAP-OH): 3.89
CC(C)[C@H](N)C(=O)N[C@@H](CCCNC(=N)N)C(=O)N1CCC[C@H]1C(=O)O (H-Val-Arg-Pro-OH): 2.18

P = N[C@@H](Cc1ccccc1)C(=O)N[C@@H](CCC(=O)O)C(=O)N1CCC[C@H]1C(=O)O (H-Phe-Glu-Pro-OH)
Q = NC(N)=NCCC[C@H](N)C(=O)N1CCC[C@H]1C(=O)O (H-Arg-Pro-OH)
R = CC(C)C[C@H](NC(=O)[C@@H](N)CC(=O)O)C(=O)N1CCC[C@H]1C(=O)O (H-Asp-Leu-Pro-OH)
S = CC[C@H](C)[C@H](N)C(=O)N[C@@H](C)C(=O)N1CCC[C@H]1C(=O)O [Ile-Ala-Pro] (H-Ile-Ala-Pro-OH)
(Q) Rank order required: IC50, descending. The labels, placed in the requested order, form the answer.
(A) Q, P, R, S
(Q: 20.8 µM, P: 12 µM, R: 4.78 µM, S: 2.69 µM)

P = N[C@@H](Cc1ccccc1)C(=O)N[C@@H](Cc1ccc(O)cc1)C(=O)O [CHEBI:73637] (H-Phe-Tyr-OH)
Q = C[C@@H](O)[C@H](N)C(=O)N[C@@H](Cc1ccccc1)C(=O)O [CHEBI:74862] (H-Thr-Phe-OH)
R = N=C(N)NCCC[C@H](N)C(=O)N[C@@H](Cc1ccc(O)cc1)C(=O)O [CHEBI:73822] (H-Arg-Tyr-OH)
(Q) Rank the items in ascending order with respect to IC50. The labels, placed in the requested order, form the answer.
(A) P, R, Q
(P: 25.1 µM, R: 51.2 µM, Q: 89.1 µM)

I = NC(=O)C[C@H](N)C(=O)N[C@@H](Cc1ccc(O)cc1)C(=O)O [CHEBI:73427] (H-Asn-Tyr-OH)
II = CC[C@H](C)[C@H](N)C(=O)N[C@@H](Cc1ccc(O)cc1)C(=O)O (H-Ile-Tyr-OH)
(Q) Lab notebook, comparison: I versus II , higher IC50 goes to which? Answer = label.
(A) I
(I: 32.3 µM, II: 6.16 µM)

* * *

Biological target: Angiotensin-converting enzyme (Homo sapiens, UniProt P12821)
Experiment: Inhibition of ACE (unknown origin)
endpoint_name: IC50 (µM)

// known answers, use as guide
H-LHLPAP-OH: 6.02
H-LHLPGP-OH: 1.9
H-LHLPYP-OH: 2.29
H-LAYFYP-OH: 64.5
H-RPQIPP-OH: 45.7

I = H-LHLYLP-OH
II = H-DYGLYP-OH
III = H-LHLWLP-OH
IV = H-LHLPLP-OH
(Q) Rank order required: IC50, descending. The labels, placed in the requested order, form the answer.
(A) II, I, III, IV
(II: 61.6 µM, I: 19 µM, III: 8.91 µM, IV: 3.71 µM)

* * *

Reported IC50 values, Angiotensin-converting enzyme (Homo sapiens, UniProt P12821).
Residues, ends and D or L forms follow the SMILES beside them.
endpoint_name: IC50 (µM)

A = NC(N)=NCCC[C@H](N)C(=O)N[C@@H](Cc1c[nH]c2ccccc12)C(=O)O (H-Arg-Trp-OH)
B = N[C@@H](CC(=O)O)C(=O)N[C@@H](Cc1ccc(O)cc1)C(=O)O [CHEBI:73455] (H-Asp-Tyr-OH)
(Q) Lab notebook, comparison: A versus B , higher IC50 goes to which? Answer = label.
(A) B

1 = CC(C)[C@H](NC(=O)[C@@H](N)Cc1ccccc1)C(=O)N[C@@H](C)C(=O)N1CCC[C@H]1C(=O)O (H-FVAP-OH)
2 = CSCC[C@H](NC(=O)[C@@H](N)C(C)C)C(=O)N1CCC[C@H]1C(=O)O (H-Val-Met-Pro-OH)
(Q) Please indicate which has the smaller reported IC50: 1 , or 2 . Answer = label.
(A) 1

* * *

Residues, ends and D or L forms follow the SMILES beside them.
Reported IC50 values, Angiotensin-converting enzyme (Homo sapiens).
endpoint_name: IC50 (µM)

// known answers, use as guide
CC(C)C[C@H](N)C(=O)N[C@@H](CCC(=O)O)C(=O)N1CCC[C@H]1C(=O)O (H-Leu-Glu-Pro-OH): 1.9
CC(C)C[C@H](N)C(=O)N[C@@H](CCCCN)C(=O)N1CCC[C@H]1C(=O)O (H-Leu-Lys-Pro-OH): 3.98
CSCC[C@H](N)C(=O)N[C@@H](Cc1c[nH]c2ccccc12)C(=O)O [CHEBI:74709] (H-Met-Trp-OH): 10
N[C@@H](Cc1c[nH]cn1)C(=O)N[C@@H](Cc1ccc(O)cc1)C(=O)O [CHEBI:74059] (H-His-Tyr-OH): 26.3
CC(C)C[C@H](N)C(=O)N[C@@H](Cc1ccc(O)cc1)C(=O)N1CCC[C@H]1C(=O)O (H-Leu-Tyr-Pro-OH): 6.6

1 = CC(C)[C@H](N)C(=O)NCC(=O)N1CCC[C@H]1C(=O)O (H-Val-Gly-Pro-OH)
2 = N=C(N)NCCC[C@H](N)C(=O)N[C@@H](Cc1ccccc1)C(=O)O
3 = CC(C)C[C@H](N)C(=O)N[C@@H](CO)C(=O)N1CCC[C@H]1C(=O)O (H-Leu-Ser-Pro-OH)
4 = NC(=O)C[C@H](N)C(=O)N[C@@H](Cc1ccccc1)C(=O)O (H-Asn-Phe-OH)
5 = CC(C)C[C@H](N)C(=O)N[C@@H](C)C(=O)N1CCC[C@H]1C(=O)O (H-Leu-Ala-Pro-OH)
(Q) Rank order required: IC50, descending. The labels, placed in the requested order, form the answer.
(A) 2, 4, 1, 5, 3

* * *

Reported pIC50 values, Angiotensin-converting enzyme (Homo sapiens).
pIC50: −log10 of the molar value. Residues, ends and D or L forms follow the SMILES beside them.
endpoint_name: pIC50

C[C@H](N)C(=O)N[C@@H](Cc1ccc(O)cc1)C(=O)O (H-Ala-Tyr-OH): 4.72
NCC(=O)N[C@@H](Cc1c[nH]c2ccccc12)C(=O)O (H-Gly-Trp-OH): 4.60
NCCCC[C@H](N)C(=O)N1CCC[C@H]1C(=O)O [CHEBI:74567] (H-Lys-Pro-OH): 4.66
